Source of measurements: patent US6887896B1

Protein target, amino acids: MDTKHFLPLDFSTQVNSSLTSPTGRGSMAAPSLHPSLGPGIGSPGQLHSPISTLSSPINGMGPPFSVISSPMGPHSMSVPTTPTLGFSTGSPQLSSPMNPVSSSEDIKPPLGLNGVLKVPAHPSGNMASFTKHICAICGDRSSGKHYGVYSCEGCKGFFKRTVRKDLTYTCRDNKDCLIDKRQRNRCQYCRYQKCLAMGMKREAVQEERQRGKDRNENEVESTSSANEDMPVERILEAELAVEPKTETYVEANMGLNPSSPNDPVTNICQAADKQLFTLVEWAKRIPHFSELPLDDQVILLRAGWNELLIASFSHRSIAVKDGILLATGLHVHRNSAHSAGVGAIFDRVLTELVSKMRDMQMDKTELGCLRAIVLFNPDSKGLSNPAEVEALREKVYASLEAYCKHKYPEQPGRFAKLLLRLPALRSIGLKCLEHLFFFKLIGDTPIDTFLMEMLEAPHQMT

RECORD SMILES: CCOc1cc2c(cc1\C(C)=C(F)/C=C/C(C)=C/C(=O)O)C(CC)=CC(C)(C)O2
Ki / nM: 833
//
RECORD SMILES: COc1c(\C(C)=C(F)/C=C/C(C)=C/C(=O)O)cc2c(c1Cl)OC(C)(C)C=C2C(C)C
Ki / nM: 2
//
RECORD SMILES: CC(/C=C/C(F)=C(/C)c1cc2c(cc1OCC1CC1)C(C)(C)CC=C2C(C)C)=C\C(=O)O
Ki / nM: 12
//
RECORD SMILES: CCCOc1cc2c(cc1\C(C)=C(F)/C=C/C(C)=C/C(=O)O)C(c1ccccc1)=CC(C)(C)O2
Ki / nM: 53

###

Some compounds, each annotated with its measured EC50.
ASSAYED SYSTEM: RARβ (Homo sapiens, UniProt P10826)
PROCEDURE SUMMARY: chimeric receptor transactivation assay, RARβ
PARTICULARS: chimeric receptor transactivation; read-out: RAR Trans. EC50 β

RECORD SMILES: CCC1=CC(C)(C)Oc2cc(OC)c(\C(C)=C/C=C/C(C)=C/C(=O)O)cc21
EC50: 845 nM
//
RECORD SMILES: CCOc1cc2c(cc1\C(C)=C/C=C/C(C)=C/C(=O)O)C(CC)=CC(C)(C)O2
EC50: > 1000 nM
//
RECORD SMILES: CCOc1cc2c(cc1\C(C)=C(F)/C=C/C(C)=C/C(=O)O)C=CCC2(C)C
EC50: > 10000 nM

###

ASSAYED SYSTEM: RARβ (Homo sapiens, UniProt P10826)
Sequence (P10826 1-455): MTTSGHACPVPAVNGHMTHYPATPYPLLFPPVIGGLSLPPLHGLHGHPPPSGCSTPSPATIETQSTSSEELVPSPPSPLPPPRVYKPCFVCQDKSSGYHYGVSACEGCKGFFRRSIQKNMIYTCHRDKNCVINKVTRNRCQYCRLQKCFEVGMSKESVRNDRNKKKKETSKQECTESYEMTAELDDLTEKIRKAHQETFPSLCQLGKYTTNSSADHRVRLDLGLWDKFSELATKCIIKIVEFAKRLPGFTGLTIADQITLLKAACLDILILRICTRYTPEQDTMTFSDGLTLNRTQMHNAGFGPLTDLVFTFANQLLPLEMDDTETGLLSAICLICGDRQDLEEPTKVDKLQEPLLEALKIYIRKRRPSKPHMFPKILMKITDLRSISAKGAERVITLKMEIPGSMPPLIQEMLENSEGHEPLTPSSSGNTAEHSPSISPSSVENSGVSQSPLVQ

COMPOUND: CC(/C=C/C(F)=C(/C)c1cc2c(c(Br)c1OC(C)C)C(C)(C)CC=C2C(C)C)=C\C(=O)O [Compound A-172]
ASSAYED SYSTEM: RARβ (Homo sapiens, UniProt P10826)
Kd [nM]: 212
--
COMPOUND: CCCOc1c(\C(C)=C(F)/C=C/C(C)=C/C(=O)O)cc2c(c1Br)C(C)(C)CC=C2C(C)C [Compound A-173]
ASSAYED SYSTEM: RARβ (Homo sapiens, UniProt P10826)
Kd [nM]: 192
--
COMPOUND: CCOc1c(\C(CC)=C(F)/C=C/C(C)=C/C(=O)O)cc2c(c1Cl)C(C)(C)CC=C2C(C)C [Compound A-178]
ASSAYED SYSTEM: RARβ (Homo sapiens, UniProt P10826)
Kd [nM]: 79

###

Catalogue of molecules with associated pEC50
ASSAYED SYSTEM: RXRα (Homo sapiens)
Sequence (P19793 1-462): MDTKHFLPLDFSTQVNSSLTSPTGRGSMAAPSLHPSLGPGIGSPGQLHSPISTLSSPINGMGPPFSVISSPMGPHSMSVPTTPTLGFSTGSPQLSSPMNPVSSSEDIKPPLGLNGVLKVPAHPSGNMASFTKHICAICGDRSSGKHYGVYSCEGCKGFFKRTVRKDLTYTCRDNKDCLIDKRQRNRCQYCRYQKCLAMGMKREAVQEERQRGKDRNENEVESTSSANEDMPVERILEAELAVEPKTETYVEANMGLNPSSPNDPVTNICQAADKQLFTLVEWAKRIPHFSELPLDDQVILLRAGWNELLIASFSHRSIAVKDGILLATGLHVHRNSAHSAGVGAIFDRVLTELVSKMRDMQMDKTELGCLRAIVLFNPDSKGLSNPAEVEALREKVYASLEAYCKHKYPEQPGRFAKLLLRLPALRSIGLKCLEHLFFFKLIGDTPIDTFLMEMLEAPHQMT
PROCEDURE SUMMARY: holoreceptor transactivation assay, RXRα
PARTICULARS: holoreceptor transactivation; read-out: RXR Trans. EC50 α
pEC50: −log10 of the molar value.

MOLECULE: CCOc1c(\C(C)=C/C=C/C(C)=C/C(=O)O)cc2c(c1Cl)OC(C)(C)C=C2C(C)C [Compound 50]
ASSAYED SYSTEM: RXRα (Homo sapiens)
pEC50: 8.70
//
MOLECULE: COc1c(\C(C)=C(F)/C=C/C(C)=C/C(=O)O)cc2c(c1Cl)OC(C)(C)C=C2C(C)C [Compound 170]
ASSAYED SYSTEM: RXRα (Homo sapiens)
pEC50: 9.10
//
MOLECULE: CC(/C=C/C(F)=C(/C)c1cc2c(c(Br)c1OC(C)C)C(C)(C)CC=C2C(C)C)=C\C(=O)O [Compound A-172]
ASSAYED SYSTEM: RXRα (Homo sapiens)
pEC50: 7.72
//
MOLECULE: CCOc1c(\C(=C(F)/C=C/C(C)=C/C(=O)O)C(C)C)cc2c(c1Br)C(C)(C)CC=C2C(C)C [Compound A-171]
ASSAYED SYSTEM: RXRα (Homo sapiens)
pEC50: 9.05
//
MOLECULE: CCOc1c(\C(CC)=C(F)/C=C/C(C)=C/C(=O)O)cc2c(c1Br)C(C)(C)CC=C2C(C)CC (stereo not drawn) [Compound A-176]
ASSAYED SYSTEM: RXRα (Homo sapiens)
pEC50: 9.05
//
MOLECULE: CC/C(=C(F)/C=C/C(C)=C/C(=O)O)c1cc2c(cc1OC)OC(C)(C)C=C2C [Compound 129]
ASSAYED SYSTEM: RXRα (Homo sapiens)
pEC50: 7.36
//
MOLECULE: CCOc1c(\C(CC)=C(F)/C=C/C(C)=C/C(=O)O)cc2c(c1Br)C(C)(C)CC=C2C(C)C [Compound A-170]
ASSAYED SYSTEM: RXRα (Homo sapiens)
pEC50: 9.70
//
MOLECULE: CCOc1cc2c(cc1\C(=C/C=C/C(C)=C/C(=O)O)CC)C(C(C)(C)C)=CCC2(C)C [Compound A-18]
ASSAYED SYSTEM: RXRα (Homo sapiens)
pEC50: 8.59
//
MOLECULE: CCOc1c(\C(C)=C(F)/C=C/C(C)=C/C(=O)O)cc2c(c1Cl)C(C)(C)CC=C2C(C)C [Compound A-177]
ASSAYED SYSTEM: RXRα (Homo sapiens)
pEC50: 10.00
//
MOLECULE: CCOc1cc2c(cc1\C(CC)=C(F)/C=C/C(C)=C/C(=O)O)C(C)=CC(C)(C)O2 [Compound 132]
ASSAYED SYSTEM: RXRα (Homo sapiens)
pEC50: 6.12
//
MOLECULE: CCOc1cc2c(cc1\C(CC)=C(F)/C=C/C(C)=C/C(=O)O)C(C(C)(C)C)=CCC2(C)C [Compound A-83]
ASSAYED SYSTEM: RXRα (Homo sapiens)
pEC50: 8.70
//
MOLECULE: CCOc1c(\C(C)=C(F)/C=C/C(C)=C/C(=O)O)cc2c(c1Br)C(C)(C)CC=C2C(C)(C)C [Compound A-174]
ASSAYED SYSTEM: RXRα (Homo sapiens)
pEC50: 9.00
//
MOLECULE: CC/C(=C(F)/C=C/C(C)=C/C(=O)O)c1cc2c(cc1OC)OC(C)(C)C=C2C(C)C [Compound 130]
ASSAYED SYSTEM: RXRα (Homo sapiens)
pEC50: 9.30
//
MOLECULE: CCOc1c(\C(C)=C(F)/C=C/C(C)=C/C(=O)O)cc2c(c1Cl)OC(C)(C)C=C2C(C)C [Compound 172]
ASSAYED SYSTEM: RXRα (Homo sapiens)
pEC50: 8.27
//
MOLECULE: COc1cc2c(cc1\C(C)=C/C=C/C(C)=C/C(=O)O)C(C(C)C)=CC(C)(C)O2 [Compound 43]
ASSAYED SYSTEM: RXRα (Homo sapiens)
pEC50: 8.70
